Assay: MRT (infinity) in CD-1 mouse at 10 mg/kg, iv
Format: ADME, organism-based
Settings: in vivo
readoutLabel: MRT inf (h)

INSERT INTO measurements (molsmiles, scaleunit, recordedmeasurement) VALUES
  ('NS(=O)(=O)N1CCC[C@@H](CNc2nonc2/C(=N/O)Nc2ccc(F)c(Br)c2)C1', 'h', 2.05),
  ('NS(=O)(=O)N1CCC[C@H](CNc2nonc2/C(=N/O)Nc2ccc(F)c(Br)c2)C1', 'h', 1.71),
  ('NS(=O)(=O)N1CC[C@@H](CNc2nonc2/C(=N/O)Nc2ccc(F)c(Br)c2)C1', 'h', 0.622),
  ('NS(=O)(=O)NCCNc1nonc1C(=NO)Nc1ccc(F)c(Br)c1', 'h', 1.04);
